Assay: protein stability index of a GFP-peptide fusion (GPS, HEK-293T) (PSI 1-6); higher = more stable;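 also: 24-mer peptide tiles fused after GFP, lentivirally expressed, FACS-sorted into six equal bins by GFP/DsRed ratio, decoded by Illumina sequencing, PSI is the read-weighted mean bin number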
Settings: treatment: DMSO; c terminus: a fixed tail appended
Readings of protein stability index for the listed sequences
Write no unit; give the number alone.

Worked cases, answers included:
DELTLARTDLEMQIEGLNEELAYL [KRT15] ... 4.1
MRDQYEQMAEKNRRDAETWFLSKT [KRT16] ... 4.29

What does the data say about its protein stability index? Entry: SSSKRYTMSRSLDGASVNENHEIY [EPB41L3] 4.11

Note, next up: LQAPFLPPKAPPPVIKIPECPSMG [RHOBTB1] 3.6

Note, next up: KDRMKSDHKRETERVVREALEKLR [ZMYND11] 3.18

* * *

Test: protein stability index of a GFP-peptide fusion (GPS, HEK-293T) (PSI 1-6); higher = more stable
Conditions: treatment: DMSO; c terminus: a fixed tail appended
Rule: protein stability index of 3 or more gives t; anything lower gives f.

TASDGGDPLRSGTVLVSVTVFDAN [PCDHGA10] ... f

Please tell me: is the sequence KLLSVIVWMLMLLLAVPNIILTNQ [P2RY14] at or over 3 in terms of protein stability index? f

Note, next up: PEGHVLRSDGKTCAKLDSCALGDH [MATN2] t

Note, next up: MTESLEASEFLEQSMSQTRELLLD [RSPH3] t

Note, next up: KVEFTEEEIKTWGTVFQELNKLYP [TPH1] f

Note, next up: RVKLEEDPDGEEGSSIPWNHLPDP [ZNF24] t

Note, next up: NLHSLALDFCDFTAEMARVLTDSN [FBXO33] f

Note, next up: SPIKKVRKSLALDIVDEDVKLMMS [MYBL2] t

Note, next up: MEADSPAGPGAPEPLAEGAAAEFS [SLC35F2] t

Note, next up: GKNLYTNEYVAIKLEPIKSRAPQL [CSNK1G1] f

Note, next up: LCEKFDYLYGILEERKNEMTQVIT [TRIM55] f

Note, next up: FTFEGFSRLRFLNLGRMIDWVPVE [ZER1] f

Note, next up: ASSGQHHDFLSDLFSDDYGGKNCK [CEBPB] t

Note, next up: YYIRYRGAVYADSGNFERCIRLWK [FEM1A] f

Note, next up: FKKGNRYIRCQKEVGKSFERHKLK [SMG5] f

Note, next up: QVHDDDLLSSSEEECKDRERPMYG [EMD] t

Note, next up: LKLRQQVIATATVYFKRFYARYSL [CCNC] f

Note, next up: PQTHSNRIYRMIKLGLGIDEDEVA [HSP90AB1] t

Note, next up: PAAKPDPDGGRADEWACELRLFGR [P3H4] t

* * *

Experiment: protein stability index of a GFP-peptide fusion (GPS, HEK-293T) (PSI 1-6); higher = more stable
Details: treatment: MLN4924 1 uM, 8 h; c terminus: a fixed tail appended
Rule: protein stability index of 3 or more gives True; anything lower gives False.

Look over these answered cases.
EKRLQEIEELEREAERKIIEENIT [SRPK2] ... True
WTNQQKLYSRTGDIVEFVCKSGYH [CFHR2] ... False

Please tell me: is the sequence VAACAQTVVSLAAAGQPTPPTSPE [CEBPD] at or over 3 in terms of protein stability index? True

Note, next up: GEQEHSQQKEEEEEMAVVPQGLFR [CHGA] True

Note, next up: LKLMVNVCGHTLCESCVDLLFVRG [MNAT1] True

Note, next up: RGNTYALQTGPLLGRPDSLELQRQ [RSPH3] True

Note, next up: RMDKRTLALLVLAHSSDVLENVFS [GOLPH3L] False

* * *

Assay: protein stability index of a GFP-peptide fusion (GPS, HEK-293T) (PSI 1-6); higher = more stable
Conditions: treatment: MLN4924 1 uM, 8 h; c terminus: a fixed tail appended
Metric name: protein stability index
Write no unit; give the number alone.

Worked cases, answers included:
AILVMHHSMKPHPAITATLLDFMC [INTS3] ... 2.98
VQSIELQRPRFITSGGSNIIYVAS [VPS39] ... 2
QSLEGDTTKGTSEMSEKRGPTSSN [MLH1] ... 5.43

What does the data say about its protein stability index? Entry: MEEQREALRKIIKTLAVKNEEIQS [FSD1] 3.16

Note, next up: KSAHQTHSSWTPPNAQYWSQFHSV [DNAJC4] 2.67

* * *

Test: protein stability index of a GFP-peptide fusion (GPS, HEK-293T) (PSI 1-6); higher = more stable
Details: treatment: MLN4924 1 uM, 8 h; c terminus: a fixed tail appended
Readings of protein stability index for the listed sequences

Worked cases, answers included:
TDQAIFYAVTPLPWCPHLVAVCPI [HDAC6] ... 3.22
YKGRQLQGCPGAKKHEFLTSVLDA [SMOC2] ... 3.73
KRALAEGAQIWCGEGVDKLSLPAR [ALDH8A1] ... 3.71
SSSRNSHLVQHQHPNSRKSSAGGA [ZNF8] ... 4.83
KRFDESMQVFAKLGTDPTHVMGLY [VPS39] ... 2.69
APRLAVAVPAVTSADSQFSQTTQA [LYSMD4] ... 4.81
ACTLTVFPPEETTPSPSRESPLSA [KLHL13] ... 4.45
DQPMGGWEMIRKIGDTSVSYKYTS [LMNB1] ... 3.2
SGGGGSSSNFHINVEESVDGQVVS [KRT15] ... 5.21
SSSSQIGNDSFQLQVTEDVNSSIK [CLCN6] ... 4.87

What does the data say about its protein stability index? Entry: PSDKVGRADAHLGSSSVALPKEAS [TOR1AIP2] 5.04

Note, next up: DSFTTNKEHAVTMPCTWVMACAYA [GNB5] 2.53

Note, next up: DQGDEGKEGRPGIPGLPGLRGLPG [SCARA5] 4.93

Note, next up: AYLVTVRGNLSILAAVLVEPKLHT [OR3A1] 2.71

* * *

Assay: protein stability index of a GFP-peptide fusion (GPS, HEK-293T) (PSI 1-6); higher = more stable
Conditions: treatment: DMSO; c terminus: a fixed tail appended
Readings of protein stability index for the listed sequences
Write no unit; give the number alone.

Worked cases, answers included:
TDQAIFYAVTPLPWCPHLVAVCPI [HDAC6] ... 3.09
KVTDHATTALLHYQLPQMPDVVVR [MED27] ... 3.07
LRNFNSAKDMKKAVAHMKYMGKGS [MATN2] ... 3.05
EAAEAVRPEERKTCRNPACGPQWE [ADAMTSL2] ... 4.8
IGEGMTKYDYLMTLHGVVNESTVC [TENT5D] ... 2.53
TGMPMMPQQPVMFAQPMMRPPFGA [SNAP91] ... 2.97
AGIALYSHEDVCVFKCSVSRETEC [CARM1] ... 3
VKEKGSTLDLSDLEAEKLVMFQRR [SCD] ... 4.06
IVAVLCYINLLNYMDRFTVAGVLP [SPNS1] ... 3.23
PGGNLIVELARYLVDVRQEQLQGF [DNAAF3] ... 2.9

What does the data say about its protein stability index? Entry: SNPELDVLLLGSVDGRHLLRTLSR [DNAAF3] 2.5

Note, next up: AEMFRRKPLFCGNSEADQLGKIFD [CDK4] 2.98

Note, next up: GVKRKADTTTPTTSAITASRSESP [BRD3] 5.22

Note, next up: VEADINGLRRVLDELTLARTDLEM [KRT15] 3.29

Note, next up: RRITYLQNPKDCSKAKKLVCNINK [FUT8] 2.77

Note, next up: YFTDTDELQLEAANETYENNFDNL [ATF6] 4.66

Note, next up: AIHVLGPIDFEESRFYEIHARARD [PCDHGC5] 2.64

Note, next up: VKLMMSTLPKSLSLPTTAPSNSSS [MYBL2] 3.24

Note, next up: EFLWGPRAHAEIRKMSLLKFLAKV [MAGEA10] 2.38

Note, next up: RLVVEFPATGGAIPSWQIRTVKLI [PKD2L1] 2.62

Note, next up: DENERDLMHIAHIAELLEVFDLRM [RHOBTB2] 2.63

Note, next up: FLRSLRQMKQKVQSLYQEVFGRLR [NFE2L1] 2.41

Note, next up: MADSASESDTDGAGGNSSSSAAMQ [CCDC6] 5.51

Note, next up: SRRQEKSAGDADPENGEIKPASKP [ELOA2] 5.53

Note, next up: VAAGRTQKAGVTRSGRLILWEAPP [NEK8] 2.85
